# measurementTarget: Geranylgeranyl pyrophosphate synthase (Homo sapiens) (UniProt O95749)
# procedureText: Inhibition of GGDPS in human RPMI-8226 cells assessed as lowest effective concentration required to show unmodified Rap1a band after 48 hrs by immunoblot analysis
# Format: cell-based
readoutLabel: LED (µM)
Write it as a number; the unit µM goes unstated.

For record `CC(C)=CCC/C(C)=C\CCC(=O)NCCC(P(=O)(O)O)P(=O)(O)O` the listed LED is 0.5

For record `CC(C)=CCC[C@@H](C)CC(=O)NCCC(P(=O)(O)O)P(=O)(O)O` the listed LED is 5

For record `CC(C)=CCC/C(C)=C/C(=O)NCCC(P(=O)(O)O)P(=O)(O)O` the listed LED is 5

For record `CC(C)=CCC[C@H](C)CC(=O)NCCC(P(=O)(O)O)P(=O)(O)O` the listed LED is 50

For record `CC(C)=CCC/C(C)=C\CC(=O)NCCC(P(=O)(O)O)P(=O)(O)O` the listed LED is 5

For record `CC(C)=CCC/C(C)=C\C(=O)NCCC(P(=O)(O)O)P(=O)(O)O` the listed LED is 50

For record `CC(C)=CCCC(=O)NCCC(P(=O)(O)O)P(=O)(O)O` the listed LED is 50

For record CC(C)=CCC/C(C)=C/C(=O)NCCC(P(=O)(O)O)P(=O)(O)O (mixture of isomers) the listed LED is 10

For record `CC(C)=CCC/C(C)=C\CCn1cc(CC(P(=O)(O)O)P(=O)(O)O)nn1` the listed LED is 0.03

For record `CC(C)=CCC/C(C)=C/CCC(=O)NCCC(P(=O)(O)O)P(=O)(O)O` the listed LED is 1

* * *

Task for the reader: assign each of the following compounds its reported IC50.
# measurementTarget: Geranylgeranyl pyrophosphate synthase (Homo sapiens, UniProt O95749)
# procedureText: Inhibition of recombinant GGDPS (unknown origin) using [14C] IPP and FPP as substrate preincubated for 10 mins followed by substrate addition and measured after 30 min by liquid scintillation counting method

For record `CC(C)=CCCC(=O)NCCC(P(=O)(O)O)P(=O)(O)O` the listed IC50 is 14.4 µM

For record `CC(C)=CCC/C(C)=C\CCC(=O)NCCC(P(=O)(O)O)P(=O)(O)O` the listed IC50 is 1.1 µM

For record `CC(C)=CCC/C(C)=C\CC(=O)NCCC(P(=O)(O)O)P(=O)(O)O` the listed IC50 is 3.7 µM

For record `CC(C)=CCC[C@H](C)CC(=O)NCCC(P(=O)(O)O)P(=O)(O)O` the listed IC50 is 5.4 µM

For record `CC(C)=CCC[C@@H](C)CC(=O)NCCC(P(=O)(O)O)P(=O)(O)O` the listed IC50 is 3.4 µM

For record `CC(C)=CCC/C(C)=C/CCC(=O)NCCC(P(=O)(O)O)P(=O)(O)O` the listed IC50 is 0.8 µM

* * *

# Organism: Homo sapiens
# procedureText: Selectivity ratio of IC50 for FDPS (unknown origin) to IC50 for GGDPS (unknown origin)
readoutLabel: Ratio IC50
When you answer, write just the number.

For record `CC(C)=CCC[C@@H](C)CC(=O)NCCC(P(=O)(O)O)P(=O)(O)O` the listed Ratio IC50 is 14.3

For record `CC(C)=CCCC(=O)NCCC(P(=O)(O)O)P(=O)(O)O` the listed Ratio IC50 is 3.1

For record `CC(C)=CCC/C(C)=C\CCC(=O)NCCC(P(=O)(O)O)P(=O)(O)O` the listed Ratio IC50 is 28.8

For record `CC(C)=CCC/C(C)=C/CCC(=O)NCCC(P(=O)(O)O)P(=O)(O)O` the listed Ratio IC50 is 17.9

For record `CC(C)=CCC/C(C)=C\CCn1cc(CC(P(=O)(O)O)P(=O)(O)O)nn1` the listed Ratio IC50 is 445

For record `CC(C)=CCC/C(C)=C\CC(=O)NCCC(P(=O)(O)O)P(=O)(O)O` the listed Ratio IC50 is 2.1

For record `CC(C)=CCC[C@H](C)CC(=O)NCCC(P(=O)(O)O)P(=O)(O)O` the listed Ratio IC50 is 5.1

* * *

# measurementTarget: Geranylgeranyl pyrophosphate synthase (Homo sapiens)
# Sequence (whole entry): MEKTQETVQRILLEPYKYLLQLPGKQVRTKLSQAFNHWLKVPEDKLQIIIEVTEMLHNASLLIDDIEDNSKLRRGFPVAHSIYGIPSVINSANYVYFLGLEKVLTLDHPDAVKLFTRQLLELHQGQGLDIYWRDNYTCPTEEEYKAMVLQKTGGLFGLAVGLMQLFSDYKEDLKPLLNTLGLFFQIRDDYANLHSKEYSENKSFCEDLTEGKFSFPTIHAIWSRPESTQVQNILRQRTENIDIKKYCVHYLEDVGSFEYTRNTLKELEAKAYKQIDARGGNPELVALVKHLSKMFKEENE
# procedureText: Inhibition of GGDPS in human RPMI-8226 cells assessed as lowest effective concentration required for increase in intracellular lambda chain level after 48 hrs by ELISA
# Type: cell-based
Task for the reader: assign each of the following molecules its reported LED.
Write it as a number; the unit µM goes unstated.

For record `CC(C)=CCC/C(C)=C\CC(=O)NCCC(P(=O)(O)O)P(=O)(O)O` the listed LED is 5

For record `CC(C)=CCC/C(C)=C/CCC(=O)NCCC(P(=O)(O)O)P(=O)(O)O` the listed LED is 1

For record CC(C)=CCC/C(C)=C/C(=O)NCCC(P(=O)(O)O)P(=O)(O)O (mixture of isomers) the listed LED is 10

For record `CC(C)=CCC/C(C)=C\CCn1cc(CC(P(=O)(O)O)P(=O)(O)O)nn1` the listed LED is 0.03

For record `CC(C)=CCC/C(C)=C/C(=O)NCCC(P(=O)(O)O)P(=O)(O)O` the listed LED is 5

For record `CC(C)=CCC[C@H](C)CC(=O)NCCC(P(=O)(O)O)P(=O)(O)O` the listed LED is 50

For record `CC(C)=CCCC(=O)NCCC(P(=O)(O)O)P(=O)(O)O` the listed LED is 50

For record `CC(C)=CCC/C(C)=C\CCC(=O)NCCC(P(=O)(O)O)P(=O)(O)O` the listed LED is 0.5

For record `CC(C)=CCC/C(C)=C\C(=O)NCCC(P(=O)(O)O)P(=O)(O)O` the listed LED is 50

For record `CC(C)=CCC[C@@H](C)CC(=O)NCCC(P(=O)(O)O)P(=O)(O)O` the listed LED is 5

* * *

# measurementTarget: Farnesyl pyrophosphate synthase (Homo sapiens)
# Sequence (P14324 whole entry): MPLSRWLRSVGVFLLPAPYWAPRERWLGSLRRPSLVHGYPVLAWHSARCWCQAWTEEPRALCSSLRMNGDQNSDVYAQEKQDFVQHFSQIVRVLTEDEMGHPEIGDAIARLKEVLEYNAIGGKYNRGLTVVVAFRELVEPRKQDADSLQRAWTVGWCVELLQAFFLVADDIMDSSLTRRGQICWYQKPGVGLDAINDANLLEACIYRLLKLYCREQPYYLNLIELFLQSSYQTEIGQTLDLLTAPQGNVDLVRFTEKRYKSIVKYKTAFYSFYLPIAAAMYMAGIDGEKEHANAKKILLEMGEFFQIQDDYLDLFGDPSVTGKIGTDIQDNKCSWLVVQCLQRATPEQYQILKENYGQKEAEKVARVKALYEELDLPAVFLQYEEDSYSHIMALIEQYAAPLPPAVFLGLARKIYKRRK
# procedureText: Inhibition of recombinant FDPS (unknown origin) using [14C] IPP and GPP as substrate preincubated for 10 mins followed by substrate addition and measured after 30 min by liquid scintillation counting method
readoutLabel: IC50

The recorded IC50 with Farnesyl pyrophosphate synthase (Homo sapiens) for `CC(C)=CCC[C@@H](C)CC(=O)NCCC(P(=O)(O)O)P(=O)(O)O` was 48.5 µM

The recorded IC50 with Farnesyl pyrophosphate synthase (Homo sapiens) for `CC(C)=CCC/C(C)=C\CCC(=O)NCCC(P(=O)(O)O)P(=O)(O)O` was 31.7 µM

The recorded IC50 with Farnesyl pyrophosphate synthase (Homo sapiens) for `CC(C)=CCC/C(C)=C/CCC(=O)NCCC(P(=O)(O)O)P(=O)(O)O` was 14.3 µM

The recorded IC50 with Farnesyl pyrophosphate synthase (Homo sapiens) for `CC(C)=CCC[C@H](C)CC(=O)NCCC(P(=O)(O)O)P(=O)(O)O` was 27.8 µM

The recorded IC50 with Farnesyl pyrophosphate synthase (Homo sapiens) for `CC(C)=CCC/C(C)=C\CCn1cc(CC(P(=O)(O)O)P(=O)(O)O)nn1` was 33.3 µM

The recorded IC50 with Farnesyl pyrophosphate synthase (Homo sapiens) for `CC(C)=CCC/C(C)=C\CC(=O)NCCC(P(=O)(O)O)P(=O)(O)O` was 7.8 µM

The recorded IC50 with Farnesyl pyrophosphate synthase (Homo sapiens) for `CC(C)=CCCC(=O)NCCC(P(=O)(O)O)P(=O)(O)O` was 44.4 µM

* * *

# Organism: Rattus norvegicus
# procedureText: Inhibition of recombinant rat FTase expressed in Escherichia coli using dansyl-GCVLS peptide and farnesyl pyrophosphate as substrate at 100 uM after 1 hr by fluorescence microplate reader analysis relative to control
Activity calls are given as the source filed them. The calls are words filed in the database; no cut-off is given here.
readoutLabel: inhibition

// solved cases for inhibition follow
substanceSmiles: CC(C)=CCC/C(C)=C\CC(=O)NCCC(P(=O)(O)O)P(=O)(O)O
result: inactive

substanceSmiles: CC(C)=CCC/C(C)=C\C(=O)NCCC(P(=O)(O)O)P(=O)(O)O
result: < 30%

substanceSmiles: CC(C)=CCC/C(C)=C/CCC(=O)NCCC(P(=O)(O)O)P(=O)(O)O
result: inactive

substanceSmiles: CC(C)=CCC[C@H](C)CC(=O)NCCC(P(=O)(O)O)P(=O)(O)O
result: inactive

substanceSmiles: CC(C)=CCC[C@@H](C)CC(=O)NCCC(P(=O)(O)O)P(=O)(O)O
result: inactive

For record `CC(C)=CCC/C(C)=C\CCC(=O)NCCC(P(=O)(O)O)P(=O)(O)O` the listed inhibition is inactive
